target under test: T1, SG115v1 (human, UniProt P01857 1-328 = IgG part)
T1 construct: Carries the CH2 modifications of SG115 (Arg235, Arg236, Lys239, EU); Construct used in the ELISA is not described beyond the constant region; also called modified IgG heavy chain constant region SG115v1
T1 sequence (P01857 other isoform, or with tags, fused parts or gaps limits assumed): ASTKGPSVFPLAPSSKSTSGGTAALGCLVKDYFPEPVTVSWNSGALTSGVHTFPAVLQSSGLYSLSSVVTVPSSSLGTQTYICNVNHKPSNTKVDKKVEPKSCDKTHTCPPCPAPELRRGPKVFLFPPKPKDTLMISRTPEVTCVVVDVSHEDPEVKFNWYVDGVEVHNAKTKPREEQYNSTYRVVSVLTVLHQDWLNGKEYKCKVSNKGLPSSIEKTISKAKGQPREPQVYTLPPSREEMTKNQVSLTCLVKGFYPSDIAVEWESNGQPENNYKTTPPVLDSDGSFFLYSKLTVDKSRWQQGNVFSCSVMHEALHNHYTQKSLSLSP
method notes: ELISA, OD405 against dose (ng/mL, log axis 1-100)
measure name: binding result

SKA0127 (antibody, V domains shown, Recombinant rabbit monoclonal from B-cell cloning, expressed in FreeStyle 293-F cells; the first screen used B-cell culture supernatant; also called Anti-SG115 Antibody; rabbit Anti Fc-Mutation Antibody) VH: QSVEESGGRLVTPGTPLTLTCTVSGIDLSTYAMTWVRQAPGKGLEYIGYINGGGSAYYASWVNGRFTISKTSTTADLKITSPTTEDTATYFCARGPVGSYHRIWGPGTLVTVSS VL: ALVMTQTPSSVSEPVGGTVTINCRASEDIESYLAWYQQKPGQPPKLLIYATSNLETGVPSRFKGSGSGTDYTLTISGVQCADAATYYCQGYYELSSIDNNAFGGGTEVVVKG	binds
SKA0054 (antibody, V domains shown, Recombinant rabbit monoclonal from B-cell cloning, expressed in FreeStyle 293-F cells; the first screen used B-cell culture supernatant; also called Anti-SG115 Antibody; rabbit Anti Fc-Mutation Antibody) VH: QSLEESGGGLVQPEGSLTLTCTASGFSFSSSFWICWVRQAPGKGLEWLACIDAGSSDNTYYANWAKGRFTISKTSSTTVTLQMTSLTDADTATYFCARDRDAAGDAGYGYATSFNLWGPGTLVTVSS VL: AIDMTQTPSSVSAAVGGTVTINCQASESIYSNLAWYQQKPGQRPKLLIYLASTLASGVPSRFKGSGSGTEFTLTISDLECADAATYYCQSVYYDSRGDTFFWAFGGGTEVVVKG	binds
